B1: LINE1-full (parent)
chain: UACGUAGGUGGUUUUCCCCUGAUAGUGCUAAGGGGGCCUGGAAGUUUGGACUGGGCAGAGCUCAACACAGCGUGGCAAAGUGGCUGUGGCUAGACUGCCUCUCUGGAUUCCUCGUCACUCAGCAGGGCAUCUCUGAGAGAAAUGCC

variants of: B1; assay: self-cleavage, relative activity (ratio to wild type); higher = more cleavage; in vitro, sequencing; the parent is a self-cleaving ribozyme
self-cleavage vs 1: at or above is TRUE, below is FALSE.

Look over these answered cases.
A69U U109C: FALSE
A138U U143C: TRUE
C63U U132A: FALSE
A30G G89C: FALSE
G74C A140G: TRUE

Asked: Form field: self-cleavage at least 1? Entry: A50C U85A
Given back: FALSE

Asked: Form field: self-cleavage at least 1? Entry: G36A U108A
Given back: TRUE

Asked: Form field: self-cleavage at least 1? Entry: `C3U`
Given back: FALSE

Asked: Form field: self-cleavage at least 1? Entry: `U108G`
Given back: TRUE

Asked: Form field: self-cleavage at least 1? Entry: A6U U20C
Given back: TRUE

Asked: Form field: self-cleavage at least 1? Entry: U26G A77G
Given back: TRUE

Asked: Form field: self-cleavage at least 1? Entry: U15A A69G
Given back: FALSE
